# Tested on: immobilized GMP-140
# PROTOCOL DESCRIPTION: ELISA (avidin detection) of binding of biotinylated monoclonal antibodies G1, G2, G3 to immobilized GMP-140 in presence of soluble peptide
# Design: species or system human
# TEST CONDITIONS: peptide 1.5 mM added to biotinylated mAb G2 (2.5 micrograms/ml) before addition to immobilized GMP-140
VALUE KIND: % Binding of Biotinylated MAbs G2 (%)

SUBSTANCE	NUMERIC VALUE
REPEATS 544-556: control peptide from one of the consensus repeats of GMP-140, amino acids 544-556	96
LECTIN 91-108: synthetic peptide, amino acids 91-108 of the lectin domain of GMP-140 (VEIYIKSPSAPGKWNDEH; UniProt P16109 132-149, looked up, fragment)	93
LECTIN 73-89: synthetic peptide, amino acids 73-89 of the lectin domain of GMP-140 (AENWADNEPNNKRNNED; UniProt P16109 114-130, looked up, fragment)	99
TRANSMEMBRANE 755-761: control peptide from the transmembrane region of GMP-140, amino acids 755-761 (RKRFRQK; UniProt P16109 796-802, looked up, fragment)	119
LECTIN/EGF 118-126: synthetic peptide, amino acids 118-126 of GMP-140 (lectin/EGF domains) (YTASCQDMS; UniProt P16109 159-167, looked up, fragment)	92

(A) LECTIN 54-72: synthetic peptide, amino acids 54-72 of the lectin domain of GMP-140 (RKNNKTWTWVGTKKALTNE; UniProt P16109 95-113, looked up, fragment)
(B) LECTIN 19-34: synthetic peptide, amino acids 19-34 of the lectin domain of GMP-140 (CQNRYTDLVAIQNKNE; UniProt P16109 60-75, looked up, fragment)
Q: // which entry has the larger % Binding of Biotinylated MAbs G2 value, A or B ? Let me know the label of the one you choose.
Result: A
